Source listed as paper PMC2748416.

target: MshC T46V mutant (Mycolicibacterium smegmatis, UniProt A0QZY0, T46V)
result type: Ki (nM)
Numbers only, in nM.

Field request: Ki | item: Nc1ncnc2c1ncn2[C@@H]1O[C@H](COS(=O)(=O)NC(=O)[C@@H](N)CS)[C@@H](O)[C@H]1O [CSA, reference compound]
360

###

target: MshC H55A mutant (Mycolicibacterium smegmatis, UniProt A0QZY0, H55A); test: Tryptophan fluorescence titration of inhibitor binding; design: species or system Mycobacterium smegmatis; settings: fluorescence method, 0.1 μM protein, pH 7.8, 25 °C
result type: pKd
Numbers only, as −log10 of the molar value.

Field request: pKd | item: Nc1ncnc2c1ncn2[C@@H]1O[C@H](COS(=O)(=O)NC(=O)[C@@H](N)CS)[C@@H](O)[C@H]1O [CSA, reference compound]
6.46
